System Name: Peptidyl-prolyl cis-trans isomerase FKBP5 (Homo sapiens, UniProt Q13451)
Sequence (Q13451 whole entry): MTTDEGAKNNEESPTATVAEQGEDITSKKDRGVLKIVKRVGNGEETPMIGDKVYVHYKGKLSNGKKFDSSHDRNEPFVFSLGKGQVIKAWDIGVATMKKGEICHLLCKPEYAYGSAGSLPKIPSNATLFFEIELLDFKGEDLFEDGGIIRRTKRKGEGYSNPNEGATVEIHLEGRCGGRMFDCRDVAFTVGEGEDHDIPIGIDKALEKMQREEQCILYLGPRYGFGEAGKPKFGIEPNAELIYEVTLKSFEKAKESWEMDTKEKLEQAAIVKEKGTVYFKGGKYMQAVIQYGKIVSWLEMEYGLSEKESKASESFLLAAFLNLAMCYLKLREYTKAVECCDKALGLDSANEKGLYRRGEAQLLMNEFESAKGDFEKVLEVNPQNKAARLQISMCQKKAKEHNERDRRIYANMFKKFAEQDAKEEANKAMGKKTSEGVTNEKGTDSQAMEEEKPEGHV
Method Summary: Displacement of fluorescent tracer 5-(3-(4-((1S,5S,6S)-10-(3,5-dichlorophenylsulfonyl)-2-oxo-3-(pyridin-3-ylmethyl)-3,10-diazabicyclo[4.3.1]decan-5-yl)-1H-1,2,3-triazol-1-yl)propylcarbamoyl)-2-(6-(dimethylamino)-3-(dimethyliminio)-3H-xanthen-9-yl)benzoate from recombinant full length C-terminal FLAG-tagged FKBP51 (unknown origin) expressed in Escherichia coli BL21 (DE3) cells incubated for 30 mins by fluorescence polarisation competition binding assay
Measured Parameter: pKd
Reminder that pKd is minus the log10 of a molar concentration.

# annotated cases, reported pKd shown
[
  {
    "Line Notation": "COc1cccc([C@@H](CCc2ccc(OC)c(OC)c2)OC(=O)[C@@H]2CCCCN2C(=O)[C@H](c2cc(OC)c(OC)c(OC)c2)C2CCCCC2)c1",
    "System Name": "Peptidyl-prolyl cis-trans isomerase FKBP5 (Homo sapiens, UniProt Q13451)",
    "Endpoint Value": 7.08
  },
  {
    "Line Notation": "COc1ccc(CC[C@H]2OC(=O)[C@@H]3CCCCN3C(=O)[C@@H](C3CCCCC3)c3cc(OC)c(c(OC)c3)OCCOc3cccc2c3)cc1OC",
    "System Name": "Peptidyl-prolyl cis-trans isomerase FKBP5 (Homo sapiens, UniProt Q13451)",
    "Endpoint Value": 7.17
  },
  {
    "Line Notation": "COc1ccc(CC[C@H]2OC(=O)[C@@H]3CCCCN3C(=O)[C@@H](C3CCCCC3)c3cc(OC)c(c(OC)c3)OCC/C=C/COc3cccc2c3)cc1OC",
    "System Name": "Peptidyl-prolyl cis-trans isomerase FKBP5 (Homo sapiens, UniProt Q13451)",
    "Endpoint Value": 6.83
  }
]

Fill in the recorded pKd for this compound, with Peptidyl-prolyl cis-trans isomerase FKBP5 (Homo sapiens, UniProt Q13451) as test system: COc1ccc(CC[C@H]2OC(=O)[C@@H]3CCCCN3C(=O)[C@@H](C3CCCCC3)c3cc(OC)c(OC)c(c3)OCC/C=C\COc3cccc2c3)cc1OC
7.15

Fill in the recorded pKd for this compound, with Peptidyl-prolyl cis-trans isomerase FKBP5 (Homo sapiens, UniProt Q13451) as test system: COc1ccc(CC[C@H]2OC(=O)[C@@H]3CCCCN3C(=O)[C@@H](C3CCCCC3)c3cc(OC)c(c(OC)c3)OCCCOCCCCOc3cccc2c3)cc1OC
7.12

Fill in the recorded pKd for this compound, with Peptidyl-prolyl cis-trans isomerase FKBP5 (Homo sapiens, UniProt Q13451) as test system: COc1ccc(CC[C@H]2OC(=O)[C@@H]3CCCCN3C(=O)[C@@H](C3CCCCC3)c3cc(OC)c(OC)c(c3)OCCC(=O)COc3cccc2c3)cc1OC
7.92

Fill in the recorded pKd for this compound, with Peptidyl-prolyl cis-trans isomerase FKBP5 (Homo sapiens, UniProt Q13451) as test system: COc1ccc(CC[C@H]2OC(=O)[C@@H]3CCCCN3C(=O)[C@@H](C3CCCCC3)c3cc(OC)c(OC)c(c3)OCCCOC/C=C\COc3cccc2c3)cc1OC
6.84

Fill in the recorded pKd for this compound, with Peptidyl-prolyl cis-trans isomerase FKBP5 (Homo sapiens, UniProt Q13451) as test system: COc1ccc(CC[C@H]2OC(=O)[C@@H]3CCCCN3C(=O)[C@@H](C3CCCCC3)c3cc(OC)c(OC)c(c3)OCCOC/C=C\COc3cccc2c3)cc1OC
6.86

Fill in the recorded pKd for this compound, with Peptidyl-prolyl cis-trans isomerase FKBP5 (Homo sapiens, UniProt Q13451) as test system: COc1ccc(CC[C@H]2OC(=O)[C@@H]3CCCCN3C(=O)[C@@H](C3CCCCC3)c3cc(OC)c(OC)c(c3)OCCOC/C=C/COc3cccc2c3)cc1OC
7.21

Fill in the recorded pKd for this compound, with Peptidyl-prolyl cis-trans isomerase FKBP5 (Homo sapiens, UniProt Q13451) as test system: COc1ccc(CC[C@H]2OC(=O)[C@@H]3CCCCN3C(=O)[C@@H](C3CCCCC3)c3cc(OC)c(OC)c(c3)OC[C@@H](O)[C@H](O)COc3cccc2c3)cc1OC
8.30

Fill in the recorded pKd for this compound, with Peptidyl-prolyl cis-trans isomerase FKBP5 (Homo sapiens, UniProt Q13451) as test system: COc1ccc(CC[C@H]2OC(=O)[C@@H]3CCCCN3C(=O)[C@@H](C3CCCCC3)c3cc(OC)c(OC)c(c3)OCCCCOc3cccc2c3)cc1OC
7.54

Fill in the recorded pKd for this compound, with Peptidyl-prolyl cis-trans isomerase FKBP5 (Homo sapiens, UniProt Q13451) as test system: COc1ccc(CC[C@H]2OC(=O)[C@@H]3CCCCN3C(=O)[C@@H](C3CCCCC3)c3cc(OC)c(c(OC)c3)OCCOCCCCOc3cccc2c3)cc1OC
6.86

Fill in the recorded pKd for this compound, with Peptidyl-prolyl cis-trans isomerase FKBP5 (Homo sapiens, UniProt Q13451) as test system: COc1ccc(CC[C@H]2OC(=O)[C@@H]3CCCCN3C(=O)[C@@H](C3CCCCC3)c3cc(OC)c(OC)c(c3)OC[C@H](O)[C@@H](O)COc3cccc2c3)cc1OC
7.77

Cited source: ChEMBL document CHEMBL4834405
